B1: HDV Ribozyme (parent)
chain: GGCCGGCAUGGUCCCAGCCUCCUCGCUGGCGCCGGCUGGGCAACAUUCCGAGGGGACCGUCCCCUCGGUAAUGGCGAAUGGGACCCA

Variants of: B1
Assay: self-cleavage, relative activity (ratio to wild type); higher = more cleavage; co-transcriptional
Output: class label from self-cleavage. Mapping: bottom (below 0.2), middle (0.2 to below 0.6), top (0.6 or more)

// below: answered variants
mutations	group_label
C3G C48G	top
G31U U79G	bottom
C24A C57A	top
A45U C75A	middle
U69G A71U	top

Req: Exercise: read the entry C30G A51U and state which class it falls under.
Resp: bottom

Req: Exercise: read the entry G68C U69G and state which class it falls under.
Resp: top

Req: Exercise: read the entry G1U C13A and state which class it falls under.
Resp: middle

Req: Exercise: read the entry A77U U79A and state which class it falls under.
Resp: middle

Req: Exercise: read the entry G38U A87C and state which class it falls under.
Resp: middle

Req: Exercise: read the entry C21A C22G and state which class it falls under.
Resp: bottom

Req: Exercise: read the entry C30A G53C and state which class it falls under.
Resp: middle

Req: Exercise: read the entry A8G A43C and state which class it falls under.
Resp: bottom

Req: Exercise: read the entry C21U C32A and state which class it falls under.
Resp: bottom

Req: Exercise: read the entry G2C C14G and state which class it falls under.
Resp: bottom

Req: Exercise: read the entry G54U A83G and state which class it falls under.
Resp: top

Req: Exercise: read the entry G40U A56C and state which class it falls under.
Resp: top

Req: Exercise: read the entry C57U C85U and state which class it falls under.
Resp: top

Req: Exercise: read the entry C36G G40A and state which class it falls under.
Resp: bottom

Req: Exercise: read the entry C24A U60G and state which class it falls under.
Resp: top

Req: Exercise: read the entry U12A C64G and state which class it falls under.
Resp: middle

Req: Exercise: read the entry G39U G54U and state which class it falls under.
Resp: top

Req: Exercise: read the entry C15A C85U and state which class it falls under.
Resp: top

Req: Exercise: read the entry G17U C57U and state which class it falls under.
Resp: middle

Req: Exercise: read the entry G5A C14U and state which class it falls under.
Resp: bottom

Req: Exercise: read the entry U9C C13G and state which class it falls under.
Resp: bottom

Req: Exercise: read the entry G17U C66U and state which class it falls under.
Resp: middle
